Biological target: Y5F H9A K48A
Assay: ITC
Where no end group is shown, it is not given here. [ ]: non-standard residue; d: D form. pS = N[C@@H](COP(=O)(O)O)C(=O)O
ENDPOINT_NAME: pKd
Formally, pKd is defined as -log10 of the concentration c, with c in mol/L.

## Input What does the data say about its pKd? Entry: SG[pS][pS]FEELDL [phosphorylated TEX264 LIR (residues 269-278 with p-S271,p-S272)]
## Output 4.52
